Data provenance: ChEMBL document CHEMBL1268935

EXPERIMENT NOTES: Cytotoxicity against human HuH5.2 cells after 3 days by WST-1 assay
Format: cell-based, Huh-5-2
Exam item: assign y to entries whose CC50 at 72 h is below 30 µM and n to entries at or above 30 µM. Note that a value of exactly 30 µM receives n.

INSERT INTO results (smiles_data, class_name) VALUES
  ('N#Cc1ccc(COc2c(-c3ccccc3)oc3cc(O)cc(O)c3c2=O)cc1', 'n'),
  ('N#Cc1cccc(COc2c(-c3ccccc3)oc3cc(O)cc(O)c3c2=O)c1', 'y'),
  ('O=c1c(OCc2cccc(Br)c2)c(-c2ccccc2)oc2cc(O)cc(O)c12', 'y'),
  ('O=c1c(OCc2cccc([N+](=O)[O-])c2)c(-c2ccccc2)oc2cc(O)cc(O)c12', 'n'),
  ('COc1ccccc1COc1c(-c2ccccc2)oc2cc(O)cc(O)c2c1=O', 'n'),
  ('Cc1ccccc1COc1c(-c2ccccc2)oc2cc(O)cc(O)c2c1=O', 'n'),
  ('Cc1cccc(COc2c(-c3ccccc3)oc3cc(O)cc(O)c3c2=O)c1', 'y'),
  ('Cc1ccc(COc2c(-c3ccccc3)oc3cc(O)cc(O)c3c2=O)cc1', 'n');

----------
EXPERIMENT NOTES: Cytotoxicity against human HuH5.2 cells after 3 days by WST-1 assay
Type: cell-based, Huh-5-2
VALUE KIND: CC50 at 72 h (µM)

INSERT INTO results (smiles_data, inequality_operator, observed_result) VALUES
  ('O=c1c(OCc2ccc([N+](=O)[O-])cc2)c(-c2ccccc2)oc2cc(O)cc(O)c12', '=', 40),
  ('N#Cc1ccccc1COc1c(-c2ccccc2)oc2cc(O)cc(O)c2c1=O', '>', 100),
  ('O=c1c(OCc2ccccc2[N+](=O)[O-])c(-c2ccccc2)oc2cc(O)cc(O)c12', '=', 51),
  ('COc1cccc(COc2c(-c3ccccc3)oc3cc(O)cc(O)c3c2=O)c1', '=', 28),
  ('O=c1c(OCc2ccccc2Br)c(-c2ccccc2)oc2cc(O)cc(O)c12', '=', 12),
  ('O=c1c(OCc2ccccc2Cl)c(-c2ccccc2)oc2cc(O)cc(O)c12', '>', 100),
  ('O=c1c(OCc2ccc(Cl)cc2)c(-c2ccccc2)oc2cc(O)cc(O)c12', '=', 36),
  ('O=c1c(OCc2ccc(Br)cc2)c(-c2ccccc2)oc2cc(O)cc(O)c12', '=', 2),
  ('COc1ccc(COc2c(-c3ccccc3)oc3cc(O)cc(O)c3c2=O)cc1', '=', 57),
  ('O=c1c(OCc2cccc(Cl)c2)c(-c2ccccc2)oc2cc(O)cc(O)c12', '=', 46);

----------
EXPERIMENT NOTES: Inhibition of HCV recombinant NS5B polymerase using [alpha32p]GTP after 30 mins by scintillation counting
Design: species or system Hepacivirus hominis
pIC50: −log10 of the molar value.
VALUE KIND: pIC50

INSERT INTO assay_data (smiles_data, inequality_operator, observed_result) VALUES
  ('COc1cccc(COc2c(-c3ccccc3)oc3cc(O)cc(O)c3c2=O)c1', '=', 4.68),
  ('O=c1c(OCc2cccc([N+](=O)[O-])c2)c(-c2ccccc2)oc2cc(O)cc(O)c12', '=', 5.19),
  ('N#Cc1cccc(COc2c(-c3ccccc3)oc3cc(O)cc(O)c3c2=O)c1', '=', 6.70),
  ('O=c1c(OCc2ccc([N+](=O)[O-])cc2)c(-c2ccccc2)oc2cc(O)cc(O)c12', '<', 4.30),
  ('O=c1c(OCc2ccccc2Br)c(-c2ccccc2)oc2cc(O)cc(O)c12', '=', 4.98),
  ('COc1ccc(COc2c(-c3ccccc3)oc3cc(O)cc(O)c3c2=O)cc1', '=', 4.53),
  ('O=c1c(OCc2cccc(Br)c2)c(-c2ccccc2)oc2cc(O)cc(O)c12', '=', 5.34),
  ('O=c1c(OCc2ccccc2[N+](=O)[O-])c(-c2ccccc2)oc2cc(O)cc(O)c12', '<', 4.30),
  ('O=c1c(OCc2ccc(Cl)cc2)c(-c2ccccc2)oc2cc(O)cc(O)c12', '=', 6.52),
  ('COc1ccccc1COc1c(-c2ccccc2)oc2cc(O)cc(O)c2c1=O', '<', 4.30);
